# tgt: PRC2 complex (EZH2 Y641F/EED/SUZ12/RbAp48/AEBP2) (Homo sapiens (Human), UniProt Q15910, Y641F)
# Sequence (Q15910 whole entry Y641F): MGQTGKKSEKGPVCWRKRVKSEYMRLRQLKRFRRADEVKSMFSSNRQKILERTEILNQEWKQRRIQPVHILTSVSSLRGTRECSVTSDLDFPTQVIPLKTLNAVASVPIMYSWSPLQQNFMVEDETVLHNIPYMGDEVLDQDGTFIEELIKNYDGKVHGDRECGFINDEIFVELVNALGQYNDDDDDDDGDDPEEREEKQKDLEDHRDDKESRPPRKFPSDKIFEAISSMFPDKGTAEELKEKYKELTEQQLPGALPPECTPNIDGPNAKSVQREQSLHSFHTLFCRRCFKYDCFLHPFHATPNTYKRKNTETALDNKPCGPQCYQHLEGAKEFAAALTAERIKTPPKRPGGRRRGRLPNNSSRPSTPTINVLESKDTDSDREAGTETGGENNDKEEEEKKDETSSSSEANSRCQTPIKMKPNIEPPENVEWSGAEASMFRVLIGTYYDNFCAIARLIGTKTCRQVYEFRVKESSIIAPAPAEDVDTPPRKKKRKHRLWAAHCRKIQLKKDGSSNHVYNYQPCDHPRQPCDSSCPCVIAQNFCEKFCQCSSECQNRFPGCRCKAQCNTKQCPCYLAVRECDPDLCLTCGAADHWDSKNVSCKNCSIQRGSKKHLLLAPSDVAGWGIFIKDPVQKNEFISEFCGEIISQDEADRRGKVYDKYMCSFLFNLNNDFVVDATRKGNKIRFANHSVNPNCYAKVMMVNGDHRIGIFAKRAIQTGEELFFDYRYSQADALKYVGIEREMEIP
# Sequence (O75530 whole entry partner): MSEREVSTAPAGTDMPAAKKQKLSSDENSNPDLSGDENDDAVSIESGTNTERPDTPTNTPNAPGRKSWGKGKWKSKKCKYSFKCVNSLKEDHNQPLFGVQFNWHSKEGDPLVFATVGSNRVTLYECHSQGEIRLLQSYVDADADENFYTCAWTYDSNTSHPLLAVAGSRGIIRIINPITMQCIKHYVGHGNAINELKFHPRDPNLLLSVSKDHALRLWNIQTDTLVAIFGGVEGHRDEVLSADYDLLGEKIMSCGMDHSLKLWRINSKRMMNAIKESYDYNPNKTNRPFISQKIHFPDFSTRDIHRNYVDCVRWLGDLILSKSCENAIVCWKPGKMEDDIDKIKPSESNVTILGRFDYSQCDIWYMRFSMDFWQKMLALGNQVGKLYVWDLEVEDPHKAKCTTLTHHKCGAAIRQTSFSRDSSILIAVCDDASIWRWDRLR
# Sequence (Q15022 whole entry partner): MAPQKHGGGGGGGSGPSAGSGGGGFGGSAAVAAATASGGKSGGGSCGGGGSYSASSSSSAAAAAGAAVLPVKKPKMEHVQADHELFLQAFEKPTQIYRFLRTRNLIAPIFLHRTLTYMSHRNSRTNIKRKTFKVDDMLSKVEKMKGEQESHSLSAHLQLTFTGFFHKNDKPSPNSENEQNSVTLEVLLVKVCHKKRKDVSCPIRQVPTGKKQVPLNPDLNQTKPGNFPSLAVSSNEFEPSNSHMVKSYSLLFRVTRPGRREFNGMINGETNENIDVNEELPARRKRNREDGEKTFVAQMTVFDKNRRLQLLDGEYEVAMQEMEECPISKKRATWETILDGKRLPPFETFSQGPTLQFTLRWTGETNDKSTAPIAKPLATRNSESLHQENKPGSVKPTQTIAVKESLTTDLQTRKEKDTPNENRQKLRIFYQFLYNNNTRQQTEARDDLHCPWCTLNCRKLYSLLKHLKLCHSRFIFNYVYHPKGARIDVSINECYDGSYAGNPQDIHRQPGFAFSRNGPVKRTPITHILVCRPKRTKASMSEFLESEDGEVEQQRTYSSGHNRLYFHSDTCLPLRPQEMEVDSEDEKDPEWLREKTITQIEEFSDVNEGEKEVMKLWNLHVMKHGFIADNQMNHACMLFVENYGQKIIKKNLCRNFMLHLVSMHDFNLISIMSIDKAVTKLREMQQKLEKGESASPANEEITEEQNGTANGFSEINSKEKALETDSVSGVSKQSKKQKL
# Sequence (Q09028 whole entry partner): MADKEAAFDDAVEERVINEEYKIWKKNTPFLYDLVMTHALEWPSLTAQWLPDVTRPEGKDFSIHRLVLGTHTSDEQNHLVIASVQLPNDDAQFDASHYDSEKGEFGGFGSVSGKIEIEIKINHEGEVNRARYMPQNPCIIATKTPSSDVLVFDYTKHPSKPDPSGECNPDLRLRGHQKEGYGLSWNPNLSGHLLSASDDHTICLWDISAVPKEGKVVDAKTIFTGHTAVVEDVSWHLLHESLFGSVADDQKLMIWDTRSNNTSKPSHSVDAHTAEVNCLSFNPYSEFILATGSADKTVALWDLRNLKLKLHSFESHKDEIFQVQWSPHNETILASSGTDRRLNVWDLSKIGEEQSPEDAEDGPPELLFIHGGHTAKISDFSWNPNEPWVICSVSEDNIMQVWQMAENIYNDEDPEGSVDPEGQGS
# Sequence (Q6ZN18 whole entry partner): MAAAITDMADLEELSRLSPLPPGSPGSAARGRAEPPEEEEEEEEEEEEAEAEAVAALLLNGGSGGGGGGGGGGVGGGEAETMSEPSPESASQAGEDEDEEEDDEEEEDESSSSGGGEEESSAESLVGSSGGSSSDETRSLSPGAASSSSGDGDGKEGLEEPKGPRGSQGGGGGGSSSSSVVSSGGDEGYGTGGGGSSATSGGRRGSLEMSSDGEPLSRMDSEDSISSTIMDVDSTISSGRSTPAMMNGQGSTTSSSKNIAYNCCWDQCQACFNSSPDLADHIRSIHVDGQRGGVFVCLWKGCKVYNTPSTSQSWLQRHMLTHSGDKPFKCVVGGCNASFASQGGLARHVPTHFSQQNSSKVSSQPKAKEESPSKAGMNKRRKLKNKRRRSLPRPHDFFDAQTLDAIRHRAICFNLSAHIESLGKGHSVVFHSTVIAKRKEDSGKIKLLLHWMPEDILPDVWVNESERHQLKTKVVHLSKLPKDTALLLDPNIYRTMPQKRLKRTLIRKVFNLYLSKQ
# test.details: Activity of a compound to PRC2 complex (EZH2 Y641F), HTRF
pIC50: −log10 of the molar value.
parameter: pIC50

{"compound": "COc1cc(C)[nH]c(=O)c1CNC(=O)c1cc2c(-c3ccnn3C)ccn2c(C(C)N2CCOCC2)c1C (centres unmarked)", "pIC50": "> 7.00"}
{"compound": "Cc1cc(C)c(CNC(=O)c2cc3cc(-c4cccnc4)cn3c(C(C)N3CCC(N(C)C)CC3)c2C)c(=O)[nH]1 (centres unmarked)", "pIC50": "> 7.00"}
{"compound": "CNc1cc(-c2ccn3c(C(C)N4CCN(CC(F)(F)F)CC4)c(C)c(C(=O)NCc4c(OC)cc(C)[nH]c4=O)cc23)ccn1 (centres unmarked)", "pIC50": "> 7.00"}
{"compound": "Cc1cc(C)c(CNC(=O)c2cc3c(-c4cccc(N5CCOCC5)c4)ccn3c(C(C)N3CCOCC3)c2C)c(=O)[nH]1 (centres unmarked)", "pIC50": "> 7.00"}
{"compound": "COC1CCN(C(C)c2c(C)c(C(=O)NCc3c(C)cc(C)[nH]c3=O)cc3cc(Br)cn23)CC1 (centres unmarked)", "pIC50": "6.00 to 7.00"}

Task: Identify pIC50 associated with the compound COc1ccc(-c2ccn3c(C(C)N4CCOCC4)c(C)c(C(=O)NCc4c(C)cc(C)[nH]c4=O)cc23)cc1 (centres unmarked)
Output: 6.00 to 7.00

Task: Identify pIC50 associated with the compound Cc1cc(C)c(CNC(=O)c2cc3cc(Br)cn3c(C(C)N3CCN(S(C)(=O)=O)CC3)c2C)c(=O)[nH]1 (centres unmarked)
Output: 6.00 to 7.00

Task: Identify pIC50 associated with the compound CCN(c1c(C)c(C(=O)NCc2c(C)cc(C)[nH]c2=O)cc2cc(Br)cn12)C1CCN(C(C)=O)CC1
Output: > 7.00

Task: Identify pIC50 associated with the compound COc1cc(C)[nH]c(=O)c1CNC(=O)c1cc2cc(-c3nccn3C)cn2c(C(C)N2CCN(CC(F)(F)F)CC2)c1C (centres unmarked)
Output: 6.00 to 7.00
